biological target: ΔF508-CFTR (Homo sapiens, UniProt P13569, DEL508-508); assay: ΔF508-CFTR potentiator assay, HS-YFP fluorescence quenching; assay type: cell-based; conditions: FRT cells, forskolin 20 μM; Hill fit
Assignment: determine reported nH (Hill coefficient) for the given compounds.
Please give the numeric answer without any surrounding text.

For reference, reported nH (Hill coefficient) for CCOC(=O)C1=C(C)NC(C)=C(C(=O)OCC)C1c1c(-c2ccccc2)nc2sc(C)cn12 [Compound 22] stands at 0.93

For reference, reported nH (Hill coefficient) for COC(=O)C1=C(C)NC(C)=C(C(=O)OC)C1c1c(C(F)(F)F)nc2sc(C)cn12 [Compound 28] stands at 0.88

For reference, reported nH (Hill coefficient) for CCOC(=O)C1=C(C)NC(C)=C(C(=O)OCC)C1c1c(C(F)(F)F)nc2sccn12 [Compound 16] stands at 0.66

For reference, reported nH (Hill coefficient) for C=CCOC(=O)C1=C(C)NC(C)=C(C(=O)OCC=C)C1c1c(-c2ccc(C(F)(F)F)cc2)nc2sc(C)c(C)n12 [Compound 19] stands at 1.14

For reference, reported nH (Hill coefficient) for C=CCOC(=O)C1=C(C)NC(C)=C(C(=O)OCC=C)C1/C=C/c1ccccc1OC [Compound 50, reference compound] stands at 1.18

For reference, reported nH (Hill coefficient) for COC(=O)C1=C(C)NC(C)=C(C(=O)OC)C1c1c(Cl)nc2sc(Cl)cn12 [Compound 31] stands at 1.04

For reference, reported nH (Hill coefficient) for COC(=O)C1=C(C)NC(C)=C(C(=O)OC)C1c1c(Cl)nc2scc(C)n12 [Compound 33] stands at 0.82

For reference, reported nH (Hill coefficient) for CCOC(=O)C1=C(C)NC(C)=C(C(=O)OCC)C1c1c(-c2ccc(Cl)c(Cl)c2Cl)nc2sccn12 [Compound 26] stands at 0.44

For reference, reported nH (Hill coefficient) for C=CCOC(=O)C1=C(C)NC(C)=C(C(=O)OCC=C)C1c1c(-c2ccc(OC(F)(F)F)cc2)nc2sccn12 [Compound 21] stands at 1.09

For reference, reported nH (Hill coefficient) for COC(=O)C1=C(C)NC(C)=C(C(=O)OC)C1c1c(-c2ccc(OC(F)(F)F)cc2)nc2sccn12 [Compound 20] stands at 1.8

For reference, reported nH (Hill coefficient) for COC(=O)C1=C(C)NC(C)=C(C(=O)OC)C1c1c(Cl)nc2sc(C)c(C)n12 [Compound 34] stands at 1.32

For reference, reported nH (Hill coefficient) for C=CCOC(=O)C1=C(C)NC(C)=C(C(=O)OCC=C)C1c1ccc(C(C)(C)C)cc1 [Compound 49, reference compound] stands at 3.58

For reference, reported nH (Hill coefficient) for CCOC(=O)C1=C(C)NC(C)=C(C(=O)OCC)C1c1c(Cl)nc2sc(C)cn12 [Compound 25] stands at 0.86

For reference, reported nH (Hill coefficient) for O=c1c(-c2ccc(O)cc2)coc2cc(O)cc(O)c12 [genistein, reference compound] stands at 1.3

For reference, reported nH (Hill coefficient) for COC(=O)C1=C(C)NC(C)=C(C(=O)OC)C1c1c(-c2ccc(C(F)(F)F)cc2)nc2sccn12 [Compound 17] stands at 2.15

For reference, reported nH (Hill coefficient) for CCOC(=O)C1=C(C)NC(C)=C(C(=O)OCC)C1c1cccc(Oc2ccccc2)c1 [Compound 48, reference compound] stands at 0.97

For reference, reported nH (Hill coefficient) for COC(=O)C1=C(C)NC(C)=C(C(=O)OC)C1c1c(-c2cccc(OC(F)(F)F)c2)nc2sccn12 [Compound 38] stands at 0.81

For reference, reported nH (Hill coefficient) for COC(=O)C1=C(C)NC(C)=C(C(=O)OC)C1c1c(C(F)(F)F)nc2sccn12 [Compound 27] stands at 1.89

For reference, reported nH (Hill coefficient) for COC(=O)C1=C(C)NC(C)=C(C(=O)OC)C1c1c(-c2cccc(OC)c2)nc2sccn12 [Compound 36] stands at 1.5

For reference, reported nH (Hill coefficient) for COC(=O)C1=C(C)NC(C)=C(C(=O)OC)C1c1c(-c2cccc(C(F)(F)F)c2)nc2sccn12 [Compound 39] stands at 1.01

For reference, reported nH (Hill coefficient) for COC(=O)C1=C(C)NC(C)=C(C(=O)OC)C1c1ccccc1[N+](=O)[O-] [nifedipine, reference compound] stands at 2.58

For reference, reported nH (Hill coefficient) for COC(=O)C1=C(C)NC(C)=C(C(=O)OC)C1c1c(C)nc2sc(Cl)cn12 [Compound 29] stands at 1.55

For reference, reported nH (Hill coefficient) for CCOC(=O)C1=C(C)NC(C)=C(C(=O)OCC)C1c1c(-c2ccc(C(F)(F)F)cc2)nc2sccn12 [Compound 18] stands at 1.69
